- Procedure summary: qHTS Assay for Epigenetic Modulators; also: % of control where 0% means no effect
- Condition info: mouse C127i GFP locus derepression, cytometry, 30 h; series mostly up to 46.1 µM
The campaign covered roughly 68,000 compounds. About 60 (0.09%) were called active. Not all results are given here.
Measure name: GFP derepression (activation)

Solved entries:
Compound | Test value
COC(=O)[C@H](C)NC(=O)Nc1ccc(OC(F)(F)F)cc1 | inactive
COC(=O)c1ccc(N(CC(=O)NC2CCCC2)C(=O)CNC(=O)c2ccco2)cc1 | inactive
Cc1cc(C)c2nc3c(c([C@H](O)[C@@H]4CCCCN4)c2c1)CC/C3=C/c1ccc(Cl)cc1 | 0% [at 9.22 µM] (inactive)
O=C(O)c1nn(-c2ccc(Cl)cc2)c2c1C(=O)c1ccccc1C2=O | 4.5% [at 9.22 µM] (inactive)
Cc1ccc(Oc2nc3ccccc3n3c(C)nnc23)cc1 | inactive

So for CCOC(=O)C1(C(F)(F)F)N=C(N(C)C)OC(N(C)C)=N1 , the logged GFP derepression (activation) turned out to be inactive

So for Cc1noc(C)c1-c1nc(Nc2ccccc2)c2ccccc2n1 , the logged GFP derepression (activation) turned out to be -2.9% [at 9.22 µM] (inactive)

So for Cn1c(=O)cc(SCC(=O)N2CCN(C(=O)c3ccco3)CC2)c2ccccc21 , the logged GFP derepression (activation) turned out to be inactive

So for O=C(NC1CCCCC1)n1c(=O)oc2cc(S(=O)(=O)N3CCCCC3)ccc21 , the logged GFP derepression (activation) turned out to be inactive

So for Cc1ccc(C(c2nnnn2C(C)(C)C)N2CCc3ccccc3C2)cc1 (centres undefined) , the logged GFP derepression (activation) turned out to be inactive

So for N#CCCN1CCN(S(=O)(=O)c2ccc(S(=O)(=O)NC3CCCCC3)cc2)CC1 , the logged GFP derepression (activation) turned out to be inactive

So for O=C(CCCn1c(SCC(=O)c2ccc(F)cc2)nc2ccccc2c1=O)NCc1ccco1 , the logged GFP derepression (activation) turned out to be inactive

So for COc1ccc(N2CCN(Cc3cc(=O)oc4ccc5ccccc5c34)CC2)cc1 , the logged GFP derepression (activation) turned out to be inactive

So for CCOCCc1c(O)nc(SCC(=O)NCc2ccco2)[nH]c1=O , the logged GFP derepression (activation) turned out to be inactive
